Origin of values: PubChem BioAssay (NCI)

System: HCT-15 colon
Test: NCI-60 one-dose screen, 48 h
Settings: 10 µM unless noted
Procedure: Growth inhibition of the HCT-15 human tumor cell line is measured as a screen for anti-cancer activity. Cells are grown in 96 well plates and exposed to the test compound for 48 hours. Compounds are tested at a single concentration, which is 10^-5 M for most compounds. The reported endpoint is percent growth (GI% or GIPRCNT), where numbers from 0 - 100% represent growth inhibition, and numbers from -100% - 0 represent cell death. For example, a value of 40 represents 60% growth inhibition. […]
This is part of a sample that, as a whole, favours compounds with a hit. Of some 83,000 tested, about 20% had one in any assay. Activity calls are given as the source filed them. The calls were made as follows: active = growth percent below 10; inactive = the rest.
Answer with one of the outcomes given here: active, inactive

Field: outcome | Entry: "CS(=O)(=O)Nc1ccc(-c2nn(-c3ccc(S(C)(=O)=O)cc3)cc2/C=C/C(=O)c2ccc(NC(=O)CO[N+](=O)[O-])cc2)cc1"
inactive

Can you check "c1ccc2c(NCCCN3CCOCC3)c3oc4ccccc4c3nc2c1" next?
active

Moving on to the next compound: CCN1C(=S)N(CC)C2C1NN=C1SC(c3ccccc3)=CC(=O)N12 (stereo not given)
inactive

Query "NC(=O)c1c(NC(=O)c2ccc(C3CCCCC3)cc2)sc2c1CCC(=O)C2" next
active

Same again, this time with N#Cc1nc(-c2ccccc2)oc1N1CCC(CO)C1 (stereo not given)
inactive

# repeat for "CCOC(=O)c1c(Nc2ccccc2)nn2c(N)c(C#N)c(-c3ccc(OC)cc3)nc12"
inactive

What do you get for "O=C(CSc1nccc(=O)[nH]1)Nc1ccc(-c2nc3ccccc3[nH]2)cc1" ?
inactive

Also, "COc1ccc(/C=C2\SC(=Nc3cc(C)[nH]n3)NC2=O)cc1" please.
inactive

Moving on to the next compound: "COc1cccc(N2CCN(c3ncnc4c3[nH]c3ccc(F)cc34)C[C@@H]2C)c1"
inactive

---

system: NCI-H460 lung; test: NCI-60 one-dose screen, 48 h (100 = growth as untreated, 0 = no growth, -100 = all killed); settings: 10 µM unless noted
About 83,000 compounds went through this panel and 20% of them were active in at least one assay; those are over-represented in the sample as a whole.
TEST READOUT: growth (%)
Write the number in % without appending the unit.

- N[C@@H](Cc1cn(-c2c3ccccc3nc3ccccc23)nn1)C(=O)O: 111
- COc1ccc(/C=N/Nc2ccnc3cc(Cl)ccc23)cc1Cl: -79
- Cc1cc2nc3c4cc(Cl)ccc4n(CC(=O)NCCN(C)C)c3nc2cc1C: -69.9

What growth value was documented for this compound, "CC(C)(C)Nc1nc2c(OCCc3ccccc3)cccn2c1-c1cccc(F)c1" ?
-11

// same read-out, input: "CCOC(=O)c1c(Nc2ccccc2)nn2c(N)c(C#N)c(-c3ccc(F)cc3)nc12"
86.8

Lookup CSCCC(C(=O)O)N1C(=O)/C(=C/c2ccc(O)c(O)c2)SC1=S (stereo unspecified)
109

---

test system: NCI-H226 lung; assay: NCI-60 one-dose screen, 48 h (100 = growth as untreated, 0 = no growth, -100 = all killed); conditions: 10 µM unless noted
About 83,000 compounds went through this panel and 20% of them were active in at least one assay; those are over-represented in the sample as a whole.
Entry class follows growth: bin A = under 50%, bin B = from 50% up to 80%, bin C = 80% and over

Reference set (3 entries):
• Clc1ccc2oc3c(NCCCn4ccnc4)c4ccccc4nc3c2c1 = bin A
• CCOC(=O)c1c(Nc2ccccc2)nn2c(N)c(C#N)c(-c3ccc(Cl)cc3)nc12 = bin A
• COc1cc(OC)c(C2C(Cl)C(=O)N2Nc2ncnc3ccccc23)cc1OC (stereo not given) = bin C

Band of "CN(C)c1ccc(/C=C2\Cc3c(F)ccc(Br)c3C2=O)cc1" ?
bin B

Would you mind doing "O=C(CCN1C(=O)/C(=C/c2ccccc2F)SC1=S)N1CCOCC1" as well?
bin C

Same thing, different compound: "Cc1ccc(-c2nc(C(Cl)Cl)nc3cc(-c4ccccc4)nn23)cc1"
bin B

Continue with CCCC(=O)NC(c1ccc(N(CC)CC)cc1)c1cc(C)c2cccnc2c1O (stereo not given)
bin A

Next record, please: CCOc1ccc([C@H]2C(C(=O)c3ccc(Cl)cc3)C3(N[C@@H]2c2ccccc2)C(=O)Nc2ccc(Br)cc23)cc1 (stereo not given in full)
bin A

Proceed to "COc1cc(-c2nc3ccc(-c4nnc(SCC(=O)Nc5ccc(C(C)=O)cc5)o4)cc3[nH]2)cc(OC)c1OC"
bin C

---

system: M14 melanoma; assay: NCI-60 one-dose screen, 48 h; settings: 10 µM unless noted
This is part of a sample that, as a whole, favours compounds with a hit. Of some 83,000 tested, about 20% had one in any assay. The source made the active and inactive calls. The calls were made as follows: active = growth percent below 10; inactive = the rest.
Allowed answers: 1 (yes) (active), 0 (no) (inactive)

Tell me the assay call for "COc1cccc(COc2ccc(/C=C3/C(=O)Nc4cc(Cl)ccc43)cc2)c1" please.
0 (no)

Now consider "Nc1c(C(=O)Nc2ccc(Cl)cc2)sc2nc(-c3cnccn3)cc(-c3cccs3)c12" and answer again.
0 (no)

---

Reported growth values for the following molecules.
tested on: SNB-75 CNS; assay: NCI-60 one-dose screen, 48 h (100 = growth as untreated, 0 = no growth, -100 = all killed); settings: 10 µM unless noted
The panel holds about 83,000 compounds, 20% with a hit somewhere; the sample as a whole holds those more often.
The reply should be a number in %, with the unit left off.

Reference set, count: 5
* Cn1c(SCC(=O)c2cccs2)nc2ccccc2c1=O | 88.7
* CC(=O)Nc1cc(F)cc(-c2ccc3[nH]cc(-c4ccccc4)c3n2)c1 | 111
* COC(=O)C(Cc1ccccc1)NS(=O)(=O)/N=C1\NC(=O)NC1=C(Cl)Cl (stereo not drawn) | 106
* Nc1nc(N)c2c(n1)NC(c1ccc(F)cc1)CC(c1ccc(Nc3nc(NCCO)nc(Nc4ccc(Cl)cc4)n3)cc1)=N2 (stereo not drawn) | 44.3
* N=C1CC(=O)NN1C(=O)CSc1nc2sc3c(c2c(=O)n1-c1ccc(Cl)cc1)CCCC3 | 73.7

Can you look up the measured growth of "COc1ccc(-c2cc(C(=O)N=Nc3c(O)[nH]c4ccccc34)c3ccccc3n2)cc1OC" for me?
92

Same for CCCC(=O)NC(c1cccnc1)c1cc(C)c2cccnc2c1O (stereo not drawn)
77.5

How about this molecule: CCCC(=O)NC(c1ccc2c(c1)OC(F)(F)O2)c1cc(C)c2cccnc2c1O (stereo not drawn)
40.4

Entry "CC(C)NC(=O)c1cc(-c2ccc(NC(=O)Nc3ccc(N4CCOCC4)c(C(F)(F)F)c3)cc2)nc2cccnc12" please
82.6

Now the same for "COc1ccc(N/N=C/c2c(-c3ccc(S(C)(=O)=O)cc3)nc3ccccn23)cc1"
62.6

And "Cn1ccnc1C(=O)/C=C/c1ccc(NC(=O)Nc2ccc(Cl)cc2)cc1" ?
74.4

Let us now turn to "OC1CCN(CCCOc2c3ccc(Cl)cc3nc3c2oc2ccc(Cl)cc23)CC1"
14.9

Next molecule up: "Cn1cc(-c2cc(N)n3nc(-c4cn(C)c5ccc(Cl)cc45)cc3n2)c2cc(Cl)ccc21"
83.2

Item: "O=C(Oc1ccc2ccc(=O)oc2c1)c1ccc(Cl)cc1"
112

Now the molecule "CC(=O)c1ccc(Nc2nc(SC(C)C)nc(-c3ccccc3)c2C#N)cc1"
92.3

Param item: "COc1ccc(-n2c(SCC(=O)Nc3ccc(-c4nc5ccccc5[nH]4)cc3)nc3ccccc3c2=O)cc1"
62.8

---

tested on: LOX IMVI melanoma; assay: NCI-60 one-dose screen, 48 h (100 = growth as untreated, 0 = no growth, -100 = all killed); settings: 10 µM unless noted
This is part of a sample that, as a whole, favours compounds with a hit. Of some 83,000 tested, about 20% had one in any assay.
TEST READOUT: growth (%)
Use % as the unit, but write only the number.

Sample answers from the record:
* CCC/C=C/C=C/C(=O)N[C@@H](Cc1cc(F)cc(F)c1)C(=O)N[C@@H]1C(=O)N2CCC[C@H]2C(=O)N2CCCC[C@H]2C(=O)N[C@@H](C)C(=O)N2C[C@H](C)C[C@H]2C(=O)O[C@H]1C | -25.3
* CCCC(=O)NC(c1ccc2c(c1)OC(F)(F)O2)c1cc(C)c2cccnc2c1O (centres undefined) | 21.1
* Fc1ccc(-c2cc3nc(C(Cl)Cl)nc(-c4ccccc4)n3n2)cc1 | 86.9
* Nc1cc(-c2c[nH]c3ccccc23)nc2cc(-c3c[nH]c4ccccc34)nn12 | -25.2
* O=C(CSc1nccc(=O)[nH]1)Nc1ccc(-c2nc3ccccc3[nH]2)cc1 | 96.9

Find the recorded growth belonging to "c1ccc(CNc2ncnc3ccc(-c4cnc5[nH]ncc5c4)cc23)cc1" and report it.
52.7

Now the same for "O=C(CSc1nc2sc3c(c2c(=O)n1-c1ccc(Cl)cc1)CCCC3)NNC(=O)Nc1cccc(C(F)(F)F)c1"
-17

Request: "Nc1cc(-c2c[nH]c3ccc(Cl)cc23)nc2cc(-c3c[nH]c4ccc(Cl)cc34)nn12"
-5.92

Note, next up: COc1cc(-c2ccc3ncnc(NC(C)c4ccccc4)c3c2)cnc1OC (centres undefined)
34.4
